molecular target: Adenosine receptor A2b (Homo sapiens) (UniProt P29275); test: Displacement of [3H]DPCPX from human adenosine A2b receptor expressed in HEK293 cells at 10 uM after 30 mins; type: cell-based
Calls of active or inactive are those of the source. The rule behind the calls is not given here.
Experimental Endpoint: inhibition

Solved entries:
1. O=c1c2ncn3nc(-c4ccccc4)cc3c2c(-c2ccccc2)nn1Cc1ccccc1 : inactive
2. O=c1c2ncn3nc(-c4ccsc4)cc3c2c(-c2cccc(F)c2)nn1Cc1ccccc1 : inactive
3. Cc1nc2c(=O)n(Cc3ccccc3)nc(-c3ccccc3)c2c2cc(-c3ccccc3)nn12 : inactive
4. Cc1nc2c(=S)n(Cc3ccccc3)nc(-c3ccncc3)c2c2cc(-c3ccccc3)nn12 : inactive

Now look at this entry.
[ask] For the compound "CCc1nc2c(=O)n(Cc3ccccc3)nc(-c3ccccc3)c2c2cc(-c3ccccc3)nn12" , report inhibition.
[reply] inactive

###

Entries annotated with measured Ki
Target: Adenosine receptor A3 (Bos taurus)
Sequence (Q0VC81 whole entry): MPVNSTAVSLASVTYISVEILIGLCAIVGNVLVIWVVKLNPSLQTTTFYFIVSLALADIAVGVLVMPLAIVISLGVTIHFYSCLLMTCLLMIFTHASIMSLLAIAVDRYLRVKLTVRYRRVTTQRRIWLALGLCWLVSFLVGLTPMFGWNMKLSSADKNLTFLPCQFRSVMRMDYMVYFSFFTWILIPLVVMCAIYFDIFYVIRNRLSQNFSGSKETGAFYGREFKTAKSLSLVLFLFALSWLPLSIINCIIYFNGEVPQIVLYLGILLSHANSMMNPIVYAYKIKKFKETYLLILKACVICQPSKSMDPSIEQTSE

Solved entries:
1. O=C(Cc1cccc2ccccc12)Nc1nc2nn(CCCc3ccccc3)cc2c2nc(-c3ccco3)nn12 : 0.3 µM
2. O=c1c(-c2ccccc2)nnc2n(-c3ccccc3)c3ccccc3n12 : > 1 µM

Now look at this entry.
[ask] For the compound "COc1ccc(CCCn2ncc3c2nc(N)n2nc(-c4ccco4)nc32)cc1" , report Ki.
[reply] > 10 µM

###

target: Adenosine receptor A2a (Homo sapiens); test: Displacement of [3H]ZM241385 from human adenosine A2a receptor expressed in HeLa cells at 10 uM after 30 mins; format: cell-based
Sequence (P29274 whole entry): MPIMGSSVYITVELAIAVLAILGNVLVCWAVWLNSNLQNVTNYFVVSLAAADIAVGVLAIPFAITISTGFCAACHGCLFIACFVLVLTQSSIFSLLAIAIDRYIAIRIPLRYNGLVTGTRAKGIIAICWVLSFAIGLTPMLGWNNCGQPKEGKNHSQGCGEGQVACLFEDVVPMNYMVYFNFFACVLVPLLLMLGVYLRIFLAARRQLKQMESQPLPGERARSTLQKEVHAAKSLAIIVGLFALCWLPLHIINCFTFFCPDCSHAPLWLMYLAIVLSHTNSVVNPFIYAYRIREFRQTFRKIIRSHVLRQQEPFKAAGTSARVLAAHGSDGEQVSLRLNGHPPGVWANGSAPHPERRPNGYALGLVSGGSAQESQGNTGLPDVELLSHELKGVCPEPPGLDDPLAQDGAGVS
Calls of active or inactive are those of the source. The calls are words filed in the database; no cut-off is given here.
Experimental Endpoint: inhibition

Solved entries:
1) O=c1c2nc(C(F)(F)F)n3nc(-c4ccccc4)cc3c2c(-c2ccc(F)cc2)nn1Cc1ccccc1 : inactive
2) Cc1nc2c(=O)n(Cc3ccccc3)nc(-c3ccc(F)cc3)c2c2cc(-c3ccccc3)nn12 : inactive
3) Cc1nn(Cc2ccccc2)c(=O)c2ncn3nc(-c4ccccc4)cc3c12 : < 50%
4) O=c1c2ncn3nc(-c4ccccc4)cc3c2c(-c2ccc(F)cc2)nn1Cc1ccccc1 : inactive
5) CCc1nc2c(=O)n(Cc3ccccc3)nc(-c3ccccc3)c2c2cc(-c3ccccc3)nn12 : inactive

[ask] For the compound "O=c1c2ncn3nc(-c4ccsc4)cc3c2c(-c2ccc(F)cc2)nn1Cc1ccccc1" , report inhibition.
[reply] inactive

[ask] For the compound "O=c1c2ncn3nc(-c4ccccc4)cc3c2c(-c2ccccc2)nn1Cc1ccccc1" , report inhibition.
[reply] inactive

[ask] For the compound Cc1nn(C(C)c2ccccc2)c(=O)c2nc(C)n3nc(-c4ccccc4)cc3c12 (centres undefined) , report inhibition.
[reply] < 50%

[ask] For the compound "Fc1ccc(-c2nnc(Cl)c3ncn4nc(-c5ccccc5)cc4c23)cc1" , report inhibition.
[reply] inactive

###

assay: Binding affinity to bovine adenosine A2a receptor; set-up: species or system Bos taurus
pKi: −log10 of the molar value.
Experimental Endpoint: pKi

[ask] For the compound "O=c1c(-c2ccccc2)nnc2n(-c3ccccc3)c3ccccc3n12" , report pKi.
[reply] < 5.00

###

target: Adenosine receptor A3 (Homo sapiens); assay: Displacement of [3H]NECA from human adenosine A3 receptor expressed in HeLa cells at 10 uM after 180 mins; type: cell-based
The source made the active and inactive calls. The rule behind the calls is not given here.
Experimental Endpoint: inhibition

Solved entries:
1. Fc1ccc(-c2nnc(Cl)c3ncn4nc(-c5ccccc5)cc4c23)cc1 : inactive
2. O=c1c2ncn3nc(-c4ccccc4)cc3c2c(-c2ccccc2)nn1Cc1ccccc1 : inactive
3. CCc1nc2c(=O)n(Cc3ccccc3)nc(-c3ccc(F)cc3)c2c2cc(-c3ccccc3)nn12 : inactive
4. O=c1c2nc(C(F)(F)F)n3nc(-c4ccccc4)cc3c2c(-c2ccc(F)cc2)nn1Cc1ccccc1 : inactive
5. CCc1nc2c(=O)n(C(C)c3ccccc3)nc(C)c2c2cc(-c3ccccc3)nn12 (configuration not stated) : < 50%
6. Cc1nc2c(=S)n(Cc3ccccc3)nc(-c3ccncc3)c2c2cc(-c3ccccc3)nn12 : inactive

Now look at this entry.
[ask] For the molecule "Cc1nn(Cc2ccccc2)c(=O)c2nc(C)n3nccc3c12" , report inhibition.
[reply] < 50%

###

biological target: UniProt P29274; assay: Displacement of [3H]ZM241385 from human adenosine A2a receptor expressed in HeLa cells at 10 uM after 30 mins; assay type: cell-based
Active and inactive are the calls of the source. No cut-off for these calls is given here.
Experimental Endpoint: inhibition

1) CCCc1nc2c(=O)n(Cc3ccccc3)nc(-c3ccccc3)c2c2cc(-c3ccccc3)nn12 : inactive
2) CCc1nc2c(=O)n(C(C)c3ccccc3)nc(C)c2c2cc(-c3ccccc3)nn12 (stereo not drawn) : < 50%
3) Cc1nn(Cc2ccccc2)c(=O)c2ncn3nccc3c12 : < 50%
4) CCc1nc2c(=O)n(Cc3ccccc3)nc(-c3ccc(F)cc3)c2c2cc(-c3ccccc3)nn12 : inactive
5) Cc1nn(Cc2ccccc2)c(=O)c2nc(C)n3nccc3c12 : < 50%
6) CC(C)c1nc2c(=O)n(Cc3ccccc3)nc(-c3ccccc3)c2c2cc(-c3ccccc3)nn12 : inactive
7) CCc1nc2c(=O)n(Cc3ccccc3)nc(-c3cccc(F)c3)c2c2cc(-c3ccsc3)nn12 : inactive

Now look at this entry.
[ask] For the compound "CCc1nc2c(=O)n(Cc3ccccc3)nc(-c3cccc(F)c3)c2c2cc(-c3ccccc3)nn12" , report inhibition.
[reply] inactive

###

biological target: Adenosine receptor A2b (Homo sapiens) (UniProt P29275); test: Displacement of [3H]DPCPX from human adenosine A2b receptor expressed in HEK293 cells at 10 uM after 30 mins; type: cell-based
Active and inactive are the calls of the source. The rule behind the calls is not given here.
Experimental Endpoint: inhibition

Solved entries:
1) Cc1nc2c(SCc3ccccc3)nnc(-c3ccncc3)c2c2cc(-c3ccccc3)nn12 : inactive
2) CCCc1nc2c(=O)n(Cc3ccccc3)nc(-c3ccccc3)c2c2cc(-c3ccccc3)nn12 : inactive
3) CCc1nc2c(=O)n(Cc3ccccc3)nc(-c3cccc(F)c3)c2c2cc(-c3ccccc3)nn12 : inactive
4) CC(C)c1nc2c(=O)n(Cc3ccccc3)nc(-c3ccncc3)c2c2cc(-c3ccccc3)nn12 : inactive
5) Cc1nn(Cc2ccccc2)c(=O)c2nc(C)n3nc(-c4ccccc4)cc3c12 : < 50%
6) Cc1nn(C(C)c2ccccc2)c(=O)c2nc(C)n3nc(-c4ccccc4)cc3c12 (stereo not given) : < 50%
7) Cc1nc2c(=O)n(Cc3ccccc3)nc(-c3cccc(F)c3)c2c2cc(-c3ccccc3)nn12 : inactive
8) CCc1nc2c(=O)n(Cc3ccccc3)nc(-c3cccnc3)c2c2cc(-c3ccccc3)nn12 : inactive

Now look at this entry.
[ask] # assay system Adenosine receptor A2b (Homo sapiens) (UniProt P29275): give inhibition of Cc1nn(C(C)c2ccccc2)c(=O)c2ncn3nc(-c4ccccc4)cc3c12 (stereo not given)
[reply] < 50%

###

Target: UniProt P29275
Sequence (P29275 whole entry): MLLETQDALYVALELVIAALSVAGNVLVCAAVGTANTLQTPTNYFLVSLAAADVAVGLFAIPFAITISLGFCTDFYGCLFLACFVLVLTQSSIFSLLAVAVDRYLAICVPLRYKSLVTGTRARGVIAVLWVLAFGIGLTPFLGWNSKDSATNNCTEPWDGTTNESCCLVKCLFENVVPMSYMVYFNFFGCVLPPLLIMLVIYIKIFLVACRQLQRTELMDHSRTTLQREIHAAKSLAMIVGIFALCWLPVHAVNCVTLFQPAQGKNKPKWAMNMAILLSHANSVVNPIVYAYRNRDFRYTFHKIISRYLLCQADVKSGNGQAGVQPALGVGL
Assay: Displacement of [3H]DPCPX from human adenosine A2b receptor expressed in HEK293 cells after 30 mins
Format: cell-based
Entries annotated with measured pKi
pKi here is simply -log10 of the concentration when that concentration is written in mol/L.

1) Cc1nn(Cc2ccccc2)c(=O)c2ncn3nc(-c4ccccc4)cc3c12 : 5.12

[ask] For the compound "Cc1nn(Cc2ccccc2)c(=O)c2ncn3nc(-c4ccsc4)cc3c12" , report pKi.
[reply] 5.33

###

target: Adenosine receptor A3 (Homo sapiens) (UniProt P0DMS8); assay: Displacement of [3H]NECA from human adenosine A3 receptor expressed in HeLa cells at 10 uM after 180 mins; type: cell-based
Sequence (P0DMS8 whole entry): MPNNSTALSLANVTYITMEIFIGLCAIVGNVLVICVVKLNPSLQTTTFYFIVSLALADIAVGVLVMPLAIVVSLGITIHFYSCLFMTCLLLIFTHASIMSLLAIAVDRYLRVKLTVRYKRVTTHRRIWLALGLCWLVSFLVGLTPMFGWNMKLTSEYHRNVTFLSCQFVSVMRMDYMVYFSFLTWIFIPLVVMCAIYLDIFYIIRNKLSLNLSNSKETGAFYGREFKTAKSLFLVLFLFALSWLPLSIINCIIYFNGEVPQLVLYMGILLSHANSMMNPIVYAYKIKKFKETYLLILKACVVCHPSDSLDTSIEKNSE
The source made the active and inactive calls. The calls are words filed in the database; no cut-off is given here.
Experimental Endpoint: inhibition

1) CCc1nc2c(=O)n(Cc3ccccc3)nc(-c3ccncc3)c2c2cc(-c3ccccc3)nn12 : inactive
2) Cc1nc2c(=O)n(Cc3ccccc3)nc(Cl)c2c2cc(-c3ccccc3)nn12 : < 50%
3) CCc1nc2c(=O)n(Cc3ccccc3)nc(-c3cccc(F)c3)c2c2cc(-c3ccccc3)nn12 : inactive
4) CCc1nc2c(=O)n(Cc3ccccc3)nc(-c3cccc(F)c3)c2c2cc(-c3ccsc3)nn12 : inactive
5) Cc1nn(Cc2ccccc2)c(=O)c2nnn3nc(-c4ccccc4)cc3c12 : < 50%

[ask] For the molecule Cc1nn(C(C)c2ccccc2)c(=O)c2ncn3nc(-c4ccccc4)cc3c12 (centres undefined) , report inhibition.
[reply] < 50%

[ask] For the molecule "Cc1nc2c(=O)n(Cc3ccccc3)nc(-c3ccc(F)cc3)c2c2cc(-c3ccccc3)nn12" , report inhibition.
[reply] inactive

[ask] For the molecule "CCCc1nc2c(=O)n(Cc3ccccc3)nc(-c3ccncc3)c2c2cc(-c3ccccc3)nn12" , report inhibition.
[reply] inactive

[ask] For the molecule "CCc1nc2c(=O)n(Cc3ccccc3)nc(-c3ccccc3)c2c2cc(-c3ccccc3)nn12" , report inhibition.
[reply] inactive

Value source: ChEMBL document CHEMBL1275345
